src = patent US9932314B2

- Test system: voltage-dependent T-type calcium channel subunit alpha-1G (Cav3.2) (Homo sapiens)
- Procedure summary: FLIPR calcium flux assay, HEK293 cells recombinantly expressing Cav3.2
- Test conditions: Cav3.2-channel, Fluo-4-AM, 3 min incubation, stimulation with 10 mM CaCl2
Threshold 30 nM: IC50 strictly smaller gives true (1), otherwise false (0).

INSERT INTO results (substance_smiles, class_assignment) VALUES
  ('O=C(Cc1ccc(N2CCCC2)nc1)Nc1ccn(Cc2ccc(F)c(F)c2)n1', 'true (1)'),
  ('CC(C)c1ccc(CC(=O)Nc2ccn(Cc3ccc(N4CC[C@H](F)C4)cn3)n2)cc1', 'false (0)'),
  ('N#Cc1ccc(Cn2ccc(NC(=O)Cc3ccc(N4CCCC4)nc3)n2)cc1F', 'true (1)');

Query block: Please check: IC50 for CN(C)c1ccc(CC(=O)Nc2ccn(Cc3ccc(OC(F)F)cc3)n2)cn1 , strictly under 30 nM or not?
Result block: false (0)

Query block: Repeat with N#Cc1ccc(Cn2ccc(NC(=O)Cc3ccc(N4CC[C@H](F)C4)cc3)n2)cc1
Result block: true (1)

----------
Known IC50 of a selection of compounds
- Test system: voltage-dependent T-type calcium channel subunit alpha-1G (Cav3.2) (Homo sapiens, UniProt O95180)
- Sequence (O95180 whole entry): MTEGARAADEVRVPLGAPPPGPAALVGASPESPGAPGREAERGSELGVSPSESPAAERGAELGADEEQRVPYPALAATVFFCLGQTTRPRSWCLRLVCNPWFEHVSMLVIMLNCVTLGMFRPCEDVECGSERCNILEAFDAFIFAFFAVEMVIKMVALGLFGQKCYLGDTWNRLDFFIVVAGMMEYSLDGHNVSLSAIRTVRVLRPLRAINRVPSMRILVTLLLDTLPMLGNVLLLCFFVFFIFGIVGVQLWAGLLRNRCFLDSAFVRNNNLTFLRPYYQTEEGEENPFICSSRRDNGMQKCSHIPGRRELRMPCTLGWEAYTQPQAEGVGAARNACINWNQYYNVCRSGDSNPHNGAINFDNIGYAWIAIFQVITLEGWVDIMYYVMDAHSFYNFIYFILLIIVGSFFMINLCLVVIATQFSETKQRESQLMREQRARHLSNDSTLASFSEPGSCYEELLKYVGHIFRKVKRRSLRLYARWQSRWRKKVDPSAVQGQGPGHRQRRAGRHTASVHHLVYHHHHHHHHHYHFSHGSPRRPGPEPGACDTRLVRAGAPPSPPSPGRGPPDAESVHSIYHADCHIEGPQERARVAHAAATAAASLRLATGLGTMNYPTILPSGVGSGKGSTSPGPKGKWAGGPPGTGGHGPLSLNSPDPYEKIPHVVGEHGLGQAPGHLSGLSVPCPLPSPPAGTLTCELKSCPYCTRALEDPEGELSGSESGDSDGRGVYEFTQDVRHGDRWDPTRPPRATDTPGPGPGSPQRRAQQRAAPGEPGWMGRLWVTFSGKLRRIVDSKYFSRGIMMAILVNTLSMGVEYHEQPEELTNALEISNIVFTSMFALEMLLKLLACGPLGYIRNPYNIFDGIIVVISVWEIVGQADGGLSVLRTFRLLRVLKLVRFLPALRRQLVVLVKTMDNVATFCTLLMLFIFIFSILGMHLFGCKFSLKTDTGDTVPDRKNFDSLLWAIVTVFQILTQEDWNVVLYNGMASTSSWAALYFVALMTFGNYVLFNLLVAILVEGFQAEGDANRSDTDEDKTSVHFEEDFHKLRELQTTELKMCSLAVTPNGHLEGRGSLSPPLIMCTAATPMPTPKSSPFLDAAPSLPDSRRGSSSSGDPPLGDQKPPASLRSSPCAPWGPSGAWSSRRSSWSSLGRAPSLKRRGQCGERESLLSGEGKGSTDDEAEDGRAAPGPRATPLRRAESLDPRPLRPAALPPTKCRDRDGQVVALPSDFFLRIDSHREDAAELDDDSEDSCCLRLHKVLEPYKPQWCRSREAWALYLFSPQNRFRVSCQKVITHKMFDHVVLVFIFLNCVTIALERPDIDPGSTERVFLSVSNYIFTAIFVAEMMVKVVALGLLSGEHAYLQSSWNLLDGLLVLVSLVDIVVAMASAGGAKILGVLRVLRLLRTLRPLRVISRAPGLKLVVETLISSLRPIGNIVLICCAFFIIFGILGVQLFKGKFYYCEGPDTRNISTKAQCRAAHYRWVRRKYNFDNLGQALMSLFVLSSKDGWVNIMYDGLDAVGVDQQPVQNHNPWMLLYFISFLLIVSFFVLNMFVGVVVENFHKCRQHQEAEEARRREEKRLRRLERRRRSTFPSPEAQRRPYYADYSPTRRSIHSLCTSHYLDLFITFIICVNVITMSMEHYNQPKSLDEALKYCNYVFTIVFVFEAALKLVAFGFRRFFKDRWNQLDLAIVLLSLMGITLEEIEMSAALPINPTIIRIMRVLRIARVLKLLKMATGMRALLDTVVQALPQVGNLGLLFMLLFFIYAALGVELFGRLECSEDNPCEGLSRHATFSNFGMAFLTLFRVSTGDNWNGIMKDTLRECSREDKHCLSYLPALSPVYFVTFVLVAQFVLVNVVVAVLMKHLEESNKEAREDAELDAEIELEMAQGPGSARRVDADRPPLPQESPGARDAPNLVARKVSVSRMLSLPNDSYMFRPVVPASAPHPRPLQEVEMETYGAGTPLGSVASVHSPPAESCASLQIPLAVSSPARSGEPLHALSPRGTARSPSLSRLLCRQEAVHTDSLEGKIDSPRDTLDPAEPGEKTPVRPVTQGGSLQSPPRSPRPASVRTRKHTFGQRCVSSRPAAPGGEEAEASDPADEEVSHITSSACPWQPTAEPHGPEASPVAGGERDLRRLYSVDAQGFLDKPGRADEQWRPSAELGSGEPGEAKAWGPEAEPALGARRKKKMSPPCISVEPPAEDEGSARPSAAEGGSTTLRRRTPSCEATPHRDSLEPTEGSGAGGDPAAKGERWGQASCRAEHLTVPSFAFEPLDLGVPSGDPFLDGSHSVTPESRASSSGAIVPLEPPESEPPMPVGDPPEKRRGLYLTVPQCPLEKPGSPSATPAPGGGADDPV
- Procedure summary: FLIPR calcium flux assay, HEK293 cells recombinantly expressing Cav3.2
- Test conditions: Cav3.2-channel, Fluo-4-AM, 3 min incubation, stimulation with 10 mM CaCl2

Some solved cases for reference:
INSERT INTO assay_data (compound, value_measured) VALUES
  ('Cc1ccc(Cn2ccc(NC(=O)Cc3ccc(OC4CC(F)(F)C4)cc3)n2)nc1C#N [Example 374]', '0.107 µM'),
  ('N#Cc1cc(Cn2ccc(NC(=O)Cc3ccc(OCC4(F)COC4)cc3)n2)ccc1F [Example 267]', '0.09 µM');

Now consider a different compound.
Query block: # lookup: IC50 of CCN(CC)c1ccc(CC(=O)Nc2ccn(Cc3ccc(F)c(F)c3)n2)cc1 [Example 113]
Result block: 0.0048 µM

----------
- Test system: voltage-dependent T-type calcium channel subunit alpha-1G (Cav3.2) (Homo sapiens, UniProt O95180)
- Procedure summary: FLIPR calcium flux assay, HEK293 cells recombinantly expressing Cav3.2
- Test conditions: Cav3.2-channel, Fluo-4-AM, 3 min incubation, stimulation with 10 mM CaCl2
Property: pIC50
pIC50 here is simply -log10 of the concentration when that concentration is written in mol/L.

Some solved cases for reference:
INSERT INTO assay_data (substance_smiles, value_measured) VALUES
  ('CN(C)c1ccc(CC(=O)Nc2ccn(Cc3cc(F)c(F)c(F)c3)n2)cn1', 7.42),
  ('N#Cc1ccc(Cn2ccc(NC(=O)Cc3ccc(N4CC[C@@H](F)C4)cc3)n2)nc1', 7.21),
  ('N#Cc1c(F)cc(Cn2ccc(NC(=O)Cc3ccc(N4CCC(F)(F)C4)nc3)n2)cc1F', 7.64),
  ('CN(CC1CC1)c1ccc(CC(=O)Nc2ccn(Cc3ccc(C#N)cn3)n2)cn1', 6.31),
  ('CC(C)c1ccc(CC(=O)Nc2ccn(Cc3ccc(F)cn3)n2)cc1', 7.82);

Now consider a different compound.
Query block: # lookup: pIC50 of N#Cc1ccc(Cn2ccc(NC(=O)Cc3ccc(OCC(F)(F)F)c(F)c3)n2)nc1
Result block: 6.94

----------
Known IC50 of a selection of compounds
- Test system: voltage-dependent T-type calcium channel subunit alpha-1G (Cav3.2) (Homo sapiens)
- Procedure summary: FLIPR calcium flux assay, HEK293 cells recombinantly expressing Cav3.2
- Test conditions: Cav3.2-channel, Fluo-4-AM, 3 min incubation, stimulation with 10 mM CaCl2
Value expressed in µM; do not type the unit.

Some solved cases for reference:
INSERT INTO assay_data (substance_smiles, unit_of_measure, value_measured) VALUES
  ('N#Cc1cc(Cn2ccc(NC(=O)Cc3ccc(C4(C(F)(F)F)CC4)cc3)n2)ncc1F', 'µM', 0.106),
  ('Cn1ccc2ccc(CC(=O)Nc3ccn(Cc4ccc(C#N)c(F)c4)n3)cc21', 'µM', 0.0066),
  ('O=C(Cc1ccc(N2CC[C@H](F)C2)cc1)Nc1ccn(Cc2ccc(F)cc2)n1', 'µM', 0.0052),
  ('COCCN(C)c1ccc(CC(=O)Nc2ccn(Cc3ccc(C#N)cn3)n2)cn1', 'µM', 2.5),
  ('N#Cc1cc(Cn2ccc(NC(=O)Cc3ccc(C4(C(F)(F)F)CC4)cc3)n2)ccc1F', 'µM', 0.032);

Query block: # lookup: IC50 of CC(C)Oc1ccc(Cn2ccc(NC(=O)Cc3ccc(C(C)C)cc3)n2)nc1
Result block: 0.031

Query block: Repeat with CC(C)c1ccc(CC(=O)Nc2ccn(Cc3cc(Cl)c(C#N)cn3)n2)cc1
Result block: 0.034

Query block: Repeat with CN(C)c1ccc(CC(=O)Nc2ccn(Cc3ccc(Br)cc3)n2)cc1
Result block: 0.0024

----------
- Test system: voltage-dependent T-type calcium channel subunit alpha-1G (Cav3.2) (Homo sapiens, UniProt O95180)
- Procedure summary: FLIPR calcium flux assay, HEK293 cells recombinantly expressing Cav3.2
- Test conditions: Cav3.2-channel, Fluo-4-AM, 3 min incubation, stimulation with 10 mM CaCl2
Known IC50 of a selection of molecules
Value expressed in nM; do not type the unit.

INSERT INTO results (molecule, property, value_measured) VALUES
  ('CCn1ncc2cc(CC(=O)Nc3ccn(Cc4cc(F)c(C#N)c(F)c4)n3)ccc21', 'IC50', 34),
  ('N#Cc1ccc(Cn2ccc(NC(=O)Cc3ccc([C@@H]4C[C@H]4C(F)(F)F)cc3)n2)nc1 (racemic)', 'IC50', 36),
  ('CC(C)Cc1nc(Cn2ccc(NC(=O)Cc3ccc(C(C)C)cc3)n2)ccc1C#N', 'IC50', 428);

Now consider a different molecule.
Query block: # lookup: IC50 of O=C(Cc1ccc(N2CC[C@@H](F)C2)cc1)Nc1ccn(Cc2ccc(F)c(F)c2)n1
Result block: 4.8

----------
Known pIC50 of a selection of compounds
- Test system: voltage-dependent T-type calcium channel subunit alpha-1G (Cav3.2) (Homo sapiens)
- Procedure summary: FLIPR calcium flux assay, HEK293 cells recombinantly expressing Cav3.2
- Test conditions: Cav3.2-channel, Fluo-4-AM, 3 min incubation, stimulation with 10 mM CaCl2
pIC50 here is simply -log10 of the concentration when that concentration is written in mol/L.

Query block: # lookup: pIC50 of Cc1cc(CC(=O)Nc2ccn(Cc3cc(C#N)c(F)cn3)n2)cc(C)c1OCC(F)(F)F [Example 416]
Result block: 7.77

Query block: Repeat with COC(C)c1ccc(CC(=O)Nc2ccn(Cc3ccc(C#N)cc3)n2)cc1 (racemic) [Example 320]
Result block: 7.00

Query block: Repeat with COc1ccc(Cn2ccc(NC(=O)Cc3ccc(N4CCC4)nc3)n2)cc1 [Example 101]
Result block: 6.03

----------
- Test system: voltage-dependent T-type calcium channel subunit alpha-1G (Cav3.2) (Homo sapiens)
- Procedure summary: FLIPR calcium flux assay, HEK293 cells recombinantly expressing Cav3.2
- Test conditions: Cav3.2-channel, Fluo-4-AM, 3 min incubation, stimulation with 10 mM CaCl2
pIC50: −log10 of the molar value.
pIC50 vs 7: at or above is satisfied, below is not satisfied.

INSERT INTO results (compound, class_assignment) VALUES
  ('Cc1nc2ccc(CC(=O)Nc3ccn(Cc4ccc(C#N)cc4)n3)cc2[nH]1', 'not satisfied'),
  ('CC(C)c1ccc(CC(=O)Nc2ccn(Cc3ccc(C#N)cn3)n2)cc1', 'satisfied');

Query block: Textbook exercise: given the entry N#Cc1ccc(Cn2ccc(NC(=O)Cc3ccc(C4CC(F)(F)C4)cc3)n2)cc1 , state whether its pIC50 is greater than or equal to 7.
Result block: satisfied

Query block: Repeat with N#Cc1cc(Cn2ccc(NC(=O)Cc3cnc(N4CCCC4)c(F)c3)n2)ccc1F
Result block: satisfied

Query block: Repeat with CC1COc2cc(CC(=O)Nc3ccn(Cc4ccc(C#N)cn4)n3)ccc2C1 (racemic)
Result block: satisfied

Query block: Repeat with Cn1ccc2cc(CC(=O)Nc3ccn(Cc4ccc(C#N)c(F)c4)n3)ccc21
Result block: satisfied

----------
- Test system: voltage-dependent T-type calcium channel subunit alpha-1G (Cav3.2) (Homo sapiens, UniProt O95180)
- Construct: expressed in transfected cells; host or cells: HEK293
- Procedure summary: FLIPR calcium flux assay, HEK293 cells recombinantly expressing Cav3.2
- Format: cell-based
- Test conditions: Cav3.2-channel, Fluo-4-AM, 3 min incubation, stimulation with 10 mM CaCl2
Property: pIC50
pIC50 here is simply -log10 of the concentration when that concentration is written in mol/L.

INSERT INTO assay_data (compound, property, value_measured) VALUES
  ('CC(C)c1ccc(CC(=O)Nc2ccn(Cc3ccc(F)c(Cl)n3)n2)cc1 [Example 211]', 'pIC50', 8.51),
  ('N#Cc1cc(Cn2ccc(NC(=O)Cc3ccc(C(F)(F)F)cc3)n2)ccc1F [Example 342]', 'pIC50', 7.40),
  ('COCCN(C)c1ccc(CC(=O)Nc2ccn(Cc3ccc(C#N)cc3)n2)cc1 [Example 127]', 'pIC50', 7.57);

Query block: # lookup: pIC50 of O=C(Cc1ccc(N2CC[C@@H](F)C2)nc1)Nc1ccn(Cc2ccc(F)cc2)n1 [Example 141]
Result block: 7.46

Query block: Repeat with N#Cc1ccc(Cn2ccc(NC(=O)Cc3ccc(C4(F)COC4)cc3)n2)cc1 [Example 250]
Result block: 6.90

Query block: Repeat with N#Cc1cc(Cn2ccc(NC(=O)Cc3ccc(S(F)(F)(F)(F)F)cc3)n2)ccc1F [Example 334]
Result block: 7.68

Query block: Repeat with O=C(Cc1ccc(-c2ccncn2)cc1)Nc1ccn(Cc2ccc(F)cc2)n1 [Example 87]
Result block: 6.80

Query block: Repeat with COc1ccc(Cn2ccc(NC(=O)Cc3ccc(C(C)C)cc3)n2)cc1 [Example 7]
Result block: 8.10

Query block: Repeat with CC1(COc2ccc(CC(=O)Nc3ccn(Cc4ccc(C#N)c(F)c4)n3)cc2)CC(F)(F)C1 [Example 290]
Result block: 7.41

Query block: Repeat with O=C(Cc1ccc2nccnc2c1)Nc1ccn(Cc2ccc(F)c(F)c2)n1 [Example 205]
Result block: 6.54

Query block: Repeat with Cc1ccc(Cn2ccc(NC(=O)Cc3ccc(N(C)C)nc3)n2)cc1 [Example 13]
Result block: 6.88

Query block: Repeat with N#Cc1ccc(Cn2ccc(NC(=O)Cc3ccc(C4(C(F)(F)F)CC4)cc3)n2)cc1 [Example 277]
Result block: 7.82

Query block: Repeat with O=C(Cc1ccc(OCC(F)(F)F)cc1)Nc1ccn(Cc2ccc(F)cc2)n1 [Example 46]
Result block: 7.59

Query block: Repeat with CC(C)c1ccc(CC(=O)Nc2ccn(Cc3ccc(F)c(C#N)n3)n2)cc1 [Example 210]
Result block: 8.10
